Reference source: patent US6441177B1

# assay_system: human liver microsomal 2,3-oxidosqualene-lanosterol cyclase (OSC) (Homo sapiens, UniProt P48449)
# Construct: Liver microsomes from a healthy volunteer were prepared in sodium phosphate buffer (pH 7.4); from tissue; host or cells: human liver microsomes from a healthy volunteer
# Sequence (P48449 whole entry): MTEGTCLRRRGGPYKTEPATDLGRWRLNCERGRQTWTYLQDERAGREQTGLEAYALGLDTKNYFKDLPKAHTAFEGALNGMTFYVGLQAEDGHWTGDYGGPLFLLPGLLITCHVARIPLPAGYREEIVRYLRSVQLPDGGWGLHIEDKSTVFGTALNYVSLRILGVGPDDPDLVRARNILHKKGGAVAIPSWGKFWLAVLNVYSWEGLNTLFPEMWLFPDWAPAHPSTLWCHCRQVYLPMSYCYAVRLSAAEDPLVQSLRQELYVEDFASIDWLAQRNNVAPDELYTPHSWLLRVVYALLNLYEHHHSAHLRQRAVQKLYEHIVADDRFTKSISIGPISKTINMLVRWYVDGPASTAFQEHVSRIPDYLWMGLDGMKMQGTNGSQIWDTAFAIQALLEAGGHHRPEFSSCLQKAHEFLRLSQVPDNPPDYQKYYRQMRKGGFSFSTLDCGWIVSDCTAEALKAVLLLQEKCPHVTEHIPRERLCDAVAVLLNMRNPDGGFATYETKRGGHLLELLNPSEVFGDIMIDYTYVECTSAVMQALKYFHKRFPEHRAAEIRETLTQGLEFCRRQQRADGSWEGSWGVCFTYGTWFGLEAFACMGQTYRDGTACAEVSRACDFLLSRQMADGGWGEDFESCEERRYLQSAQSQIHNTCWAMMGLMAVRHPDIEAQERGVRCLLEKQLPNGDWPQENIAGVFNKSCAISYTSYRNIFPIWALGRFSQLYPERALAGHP
# method_description: Inhibition of human liver microsomal 2,3-oxidosqualene-lanosterol cyclase (OSC)
# Type: biochemical
# condition_details: constant test substance concentration of 100 nM; human liver microsomes, 1 hour at 37° C.; against controls
outcome_measure: inhibition at 0.1 µM (%)
Just the number in %, nothing appended.

Here's what some known entries look like.
{"molecule": "CN(CCCCCCOc1ccccc1C(=O)c1ccc(Br)cc1)C1CC1 [Example 13a]", "inhibition at 0.1 µM [%]": 82}
{"molecule": "C=CCN(C)C/C=C/COc1ccc(C(=NOC)c2ccc(Br)cc2)cc1", "inhibition at 0.1 µM [%]": 87.5}

Query :: Determine from records and report inhibition at 0.1 µM for `C=CCN(C)CCCCCCOc1ccc(C(=O)c2ccc(Br)cc2)c(N)c1`
Result :: 92

----------
Here's what we have: pIC50 numbers for human liver microsomal 2,3-oxidosqualene-lanosterol cyclase (OSC) (Homo sapiens).
Lab note: report pIC50 as minus log10 of the concentration in molar units, number only.

For orientation, consider the following solved cases.
{"compound": "C=CCN(C)C/C=C/COc1ccc(C(=C)c2ccc(Br)cc2)cc1", "outcome_measure": "pIC50", "number": 7.87}
{"compound": "C=CCN(C)CCCCCCOc1ccc(C(=O)c2ccc(Br)cc2)c(N)c1", "outcome_measure": "pIC50", "number": 8.05}
{"compound": "C=CCN(C)CCCCCCOc1ccc(C(=O)c2ccc(Br)cc2)c(SC)c1", "outcome_measure": "pIC50", "number": 8.31}
{"compound": "C=CCN(C)C/C=C/COc1cc(F)c(C(=O)c2ccc(Br)cc2)cc1F", "outcome_measure": "pIC50", "number": 8.62}
{"compound": "CN(CCCCCCOc1ccc(C(=O)c2ccc(Br)cc2)cc1)CC1CC1", "outcome_measure": "pIC50", "number": 7.49}

Query :: # return pIC50 of CN(C[C@@H]1C[C@H]1COc1ccc(C(=O)c2ccc(Br)cc2)cc1)C1CC1 (racemic) (system: human liver microsomal 2,3-oxidosqualene-lanosterol cyclase (OSC) (Homo sapiens))
Result :: 7.66

Query :: Please report the measured pIC50 for C=CCN(C)C/C=C/COc1ccc(C(C)(O)CCC=C(C)C)cc1 (racemic) [Example 39a] tested on human liver microsomal 2,3-oxidosqualene-lanosterol cyclase (OSC) (Homo sapiens).
Result :: 7.91

----------
# assay_system: human liver microsomal 2,3-oxidosqualene-lanosterol cyclase (OSC) (Homo sapiens, UniProt P48449)
# Construct: Liver microsomes from a healthy volunteer were prepared in sodium phosphate buffer (pH 7.4); from tissue; host or cells: human liver microsomes from a healthy volunteer
# method_description: Inhibition of human liver microsomal 2,3-oxidosqualene-lanosterol cyclase (OSC)
# Format: biochemical
# condition_details: concentration reducing conversion of MOS into lanosterol to 50% of control; human liver microsomes
outcome_measure: pIC50
The read-out pIC50 is expressed as -log10 of concentration in moles per litre.

Query :: Indicate the recorded pIC50 value for this compound: C=CCN(C)C/C=C/COc1ccc(C(O)(C=C)c2ccc(Br)cc2)cc1 (racemic)
Result :: 7.63

Query :: Provide measured pIC50 value, entry: C=CCN(C)CCCCCCOc1ccc(C(C)(O)c2ccc(Br)cc2)c(F)c1 (racemic)
Result :: 7.68

Query :: Return pIC50 (reported value) for this compound: CN(C[C@@H]1C[C@H]1COc1ccc(C(=O)c2ccc(Br)cc2)cc1F)C1CC1 (racemic) [Example 32a]
Result :: 8.44

Query :: Answer with the recorded pIC50 for the compound listed here: C=CCN(C)CCCCCCOc1ccc(C(=O)c2ccc(Br)cc2)c(N(C)C)c1 [Example 34a]
Result :: 8.15

Query :: Give pIC50 for CN(C/C=C/COc1ccc(C(=O)c2ccc(C#N)cc2)cc1F)C1CC1 [Example 13b]
Result :: 8.10

Query :: Please look at this compound and report its pIC50: `CN(C/C=C/COc1ccc(C(=O)c2ccc(Br)cc2)cc1)C1CC1`
Result :: 7.72

Query :: Input `C=CCN(C)CCCCCCNc1ccc(C(=O)c2ccc(Br)cc2)cc1F` , output reported pIC50.
Result :: 8.49

Query :: Find the measured pIC50 of `C=CCN(C)C/C=C/COc1ccc(C(=NOC)c2ccc(Br)cc2)cc1` and report it.
Result :: 7.89

Query :: Fill in reported pIC50 for this entry: `C=CCN(C)CCCCCCOc1ccc(C(=O)c2ccc(Br)cc2)c(NC)c1`
Result :: 8.64

Query :: Return reported pIC50. Input compound: `C=CCN(C)C/C=C/CNc1ccc(C(=O)c2ccc(Br)cc2)cc1F`
Result :: 8.35
